Please respond with reported growth for every item in the list.
system: HOP-92 NSCLC; assay: NCI-60 one-dose screen, 48 h (100 = growth as untreated, 0 = no growth, -100 = all killed); details: 10 µM unless noted
This is part of a sample that, as a whole, favours compounds with a hit. Of some 83,000 tested, about 20% had one in any assay.
Answers are plain numbers, in %.

Study these solved cases before continuing.
INSERT INTO measurements (compound, property_measured, quantitative_result) VALUES
  ('Cc1ccc(C(=O)c2sc3nc4c(cc3c2N)CCCC4)c(C)c1', 'growth', 27.4),
  ('COc1cc(-c2n[nH]nc2-c2ccc3c(c2)OCCO3)cc(OC)c1OC', 'growth', 24.3),
  ('C/C(=C\c1csc(C)n1)[C@@H]1C[C@@H]2O[C@]2(C)CCC[C@H](C)[C@H](O)[C@@H](C)C(=O)C(C)(C)[C@@H](O)CC(=O)N1', 'growth', -47.2),
  ('CC/C=C\C[C@H](O)C/C=C1/C(=O)C(Cl)=C[C@@H]1C/C=C\CCCC(=O)O', 'growth', 98.3),
  ('NS(=O)(=O)c1ccc(CN2C(=O)c3cccc4cccc(c34)C2=O)cc1', 'growth', 82.7),
  ('CCCCNc1nnc(-c2cc(-c3cc4ccccc4o3)nn2-c2ccccc2)o1', 'growth', 46.4);

List reported growth for each of these compounds:
1. CN=S(=O)(NC(=O)c1ccc(Cl)cc1Cl)c1ccc(Br)s1 (centres undefined)
2. COc1ccc(N=C2NN=C(c3ccc(F)cc3)CS2)cc1OC

1. 65.9
2. 72.8

List reported growth for each of these compounds:
1. COc1cc(OC)cc(-c2n[nH]nc2-c2ccc3c(c2)OCO3)c1
2. CC[C@]1(O)C[C@@H]2CN(Cc3c([nH]c4ccccc34)[C@@](C(=O)OC)(c3cc4c(cc3OC)N(C)[C@H]3[C@@](O)(C(=O)OC)[C@H](OC(C)=O)[C@]5(CC)[C@@H]6C[C@@H]6CN6CC[C@]43[C@@H]65)C2)C1
3. CC1=C(C#N)C(C)(C)C(C#N)=C(C)N1
4. COc1cc(/C=C/C(=O)c2ccccc2O)ccc1OCCCOc1cc2c(cc1OC)C(=O)N1CCC[C@H]1C=N2

[57, -12, 95.6, -27.4]

----------
System: HOP-92 NSCLC
Assay: NCI-60 one-dose screen, 48 h (100 = growth as untreated, 0 = no growth, -100 = all killed)
Conditions: 10 µM unless noted
Description: Growth inhibition of the HOP-92 human Non-Small Cell Lung tumor cell line is measured as a screen for anti-cancer activity. Cells are grown in 96 well plates and exposed to the test compound for 48 hours. Compounds are tested at a single concentration, which is 10^-5 M for most compounds. The reported endpoint is percent growth (GI% or GIPRCNT), where numbers from 0 - 100% represent growth inhibition, and numbers from -100% - 0 represent cell death. […]
Compounds without any hit were thinned out: in the full panel of roughly 83,000, 20% have a hit. The source made the active and inactive calls. Rule for the calls: active = growth percent below 10; inactive = the rest.
property-measured: growth

INSERT INTO assay_data (molecule, property_measured, result) VALUES
  ('COC(=O)CC/C(C)=N\Nc1ccc([N+](=O)[O-])cc1', 'growth', '92.7% (inactive)');

List reported growth for each of these molecules:
1. CCCOC(=O)C1(O)CCCC1
2. COc1ccc2c(c1)C(C)Cc1c(N(C)C)ncnc1N2C (centres undefined)

["89.8% (inactive)", "50.5% (inactive)"]

List reported growth for each of these molecules:
1. CC(C)(C)OC(=O)N[C@@H](Cc1ccccc1)C(=O)N(Cc1ccccc1)C1(C(=O)NCc2ccccc2)CCN(Cc2ccccc2)CC1
2. COc1cccc(/C=C/c2c(C(=O)O)cccc2[N+](=O)[O-])c1OC
3. COc1ccc(-c2nc3sccn3c2-c2ccnc(NCCCNS(=O)(=O)c3ccc(F)cc3)n2)cc1
4. CCOC(=O)/C=C\C(=O)NC(N)=O
5. CC(Br)C(OC(=O)c1ccccc1Cl)c1cc2c(cc1Br)OCO2 (centres undefined)

["-8.51% (active)", "89.1% (inactive)", "44.2% (inactive)", "94.5% (inactive)", "68.5% (inactive)"]

List reported growth for each of these molecules:
1. NCCSC(c1ccccc1)(c1ccccc1)c1ccccc1
2. Cc1cc(C)c2c(=O)[nH]c(SCC(=O)Nc3cccc(S(=O)(=O)N(C)C)c3)nc2n1
3. COc1ccc(-c2nc3sccn3c2-c2ccnc(NCCCNS(=O)(=O)c3ccc(C)cc3)n2)cc1
4. O=C(Nc1ccc(I)cc1)c1cccc([N+](=O)[O-])c1O
5. O=S(=O)(NCCCNc1nccc(-c2c(-c3ccc(F)c(O)c3)nc3sccn23)n1)c1ccc(Cl)cc1
6. CCn1cc(C(=O)O)c(=O)c2cc(F)c(N3CCN(S(=O)(=O)c4ccc(Cl)cc4Cl)CC3)cc21

-2.14% (active)
88.3% (inactive)
67.5% (inactive)
-4.99% (active)
74.3% (inactive)
-9.06% (active)

List reported growth for each of these molecules:
1. COc1cc2oc(-c3cccc(NC(=O)Nc4ccc5c(c4)OCO5)c3)cc(=O)c2c(OC)c1OC
2. CCNC(=O)C1CCCN1C(=O)C(CCCN=C(N)N)NC(=O)C(CC(C)C)NC(=O)C(CC(C)C)NC(=O)C(Cc1ccc(O)cc1)NC(=O)C(CO)NC(=O)C(Cc1c[nH]c2ccccc12)NC(=O)C(Cc1cnc[nH]1)NC(=O)C1CCC(=O)N1 (centres undefined)
3. CCCCCc1c(C)[nH]c(/C=c2\[nH]/c(=C3/C=c4ccccc4=N3)cc2OC)c1C
4. CCCCCCOc1ccc(C2(Cl)c3ccccc3N(C)c3ccccc32)cc1
5. O=C(c1c[nH]c2ccccc12)C(Sc1nc2ccccc2c(=O)[nH]1)c1ccccc1 (centres undefined)

1. 17.2% (inactive)
2. 92% (inactive)
3. -56.8% (active)
4. 83.1% (inactive)
5. 91.7% (inactive)

----------
tested on: NCI/ADR-RES ovarian; assay: NCI-60 one-dose screen, 48 h (100 = growth as untreated, 0 = no growth, -100 = all killed); conditions: 10 µM unless noted
This is part of a sample that, as a whole, favours compounds with a hit. Of some 83,000 tested, about 20% had one in any assay. The source made the active and inactive calls. How the source made its calls: active means growth percent below 10; inactive means the rest.
property-measured: growth

Study these solved cases before continuing.
INSERT INTO assay_data (compound, property_measured, result) VALUES
  ('CC/C=C\C[C@H]1C/C=C2/C(=O)C(Cl)=C[C@@H]2C/C=C\CCCC(=O)O1', 'growth', '6.27% (active)'),
  ('COc1cc(-c2csc(NC(=O)c3cc(C(F)(F)F)cc(C(F)(F)F)c3)n2)cc(OC)c1OC', 'growth', '16.2% (inactive)'),
  ('O=C(CN1CCN(c2cc3c(cc2F)c(=O)c(C(=O)O)cn3C2CC2)CC1)Nc1ccc(C(=O)/C=C/c2ccccc2)cc1', 'growth', '93.5% (inactive)'),
  ('COc1cccc(C2CC(=O)Nc3c2c(C)nn3-c2nc3ccccc3[nH]2)c1OC (centres undefined)', 'growth', '73.2% (inactive)'),
  ('COc1ccc(C(=O)c2cc(OC)c(OC)c(OC)c2)cc1/C=C/C(=O)c1ccc(OC)c(OC)c1', 'growth', '19% (inactive)'),
  ('COc1ccc2c(c1)NC(=O)CN2c1nc(NC2CC2)nc2ccccc12', 'growth', '5.39% (active)'),
  ('CCSc1nnc(Nc2ccc(C(C)C)cc2)s1', 'growth', '87.6% (inactive)'),
  ('NC(=O)c1cccc(N2Cc3ccccc3OC3=C2C(=O)c2c(O)ccc(O)c2C3=O)c1', 'growth', '10% (inactive)');

Consider the record given below.
For CCN1C(=O)N(CC)C2C1NN=c1s/c(=C\c3ccccn3)c(=O)n12 (centres undefined) , write its growth. 2.1% (active)

----------
Please respond with reported growth for every item in the list.
system: A498 renal; test: NCI-60 one-dose screen, 48 h (100 = growth as untreated, 0 = no growth, -100 = all killed); conditions: 10 µM unless noted
About 83,000 compounds went through this panel and 20% of them were active in at least one assay; those are over-represented in the sample as a whole.
Answers are plain numbers, in %.

Study these solved cases before continuing.
INSERT INTO results (compound, quantitative_result) VALUES
  ('Nc1c(C(=O)Nc2c(Cl)cccc2Cl)sc2nc3c(cc12)CCCCC3', 30),
  ('COc1ccc(C2CC(=O)Nc3c2c(C)nn3-c2nc3ccccc3[nH]2)cc1OC (stereo unspecified)', 3.48),
  ('COc1ccc(C(=O)c2cc(OC)c(OC)c(OC)c2)cc1/C=C/C(=O)c1ccc2c(c1)OCO2', 71.9),
  ('Cc1ccc2c(c1)C(C)Cc1c(ncnc1-n1cnc3ccccc31)N2C (stereo unspecified)', -16),
  ('Cc1cc(Nc2nc(-c3ccncc3)nc3ccccc23)n[nH]1', 4.45);

List reported growth for each of these compounds:
1. C/C1=C\CCC2(C)OC2CC2CCC(C)(O)C(CC1)C2(C)C (stereo unspecified)
2. CC(CCc1ccccc1)NC(=O)c1n[nH]c(=O)c2ccccc12 (stereo unspecified)
3. Cc1ccc(Cn2c(-c3cccs3)nc3ccccc32)cc1
4. CCC(c1cccc(Br)c1)C(C(=O)O)c1ccc(OC)cc1 (stereo unspecified)

[106, 98.4, 80.2, 100]

List reported growth for each of these compounds:
1. Cc1ccc(S(=O)(=O)OCC(=O)Nc2ccc(C(=O)O)c(O)c2)cc1
2. Cn1c(-c2nonc2NC(=O)c2ccc(F)cc2)nc2ccccc21

1: 99.3; 2: 85.6
